# Tested on: redroot pigweed
# Experiment Summary: Test A pre-/postemergence herbicide test
# Format: in vivo, Amaranthus retroflexus
# Measurement Context: Postemergence, 500 g ai/ha; 0 to 100 scale, 0 no effect, 100 complete control
A collection of compounds and their measured Pigweed plant response rating
Lab note: record the figure alone, no unit after it.

CCn1nc(C(C)(C)C)cc1C(=O)Nc1cc(OC)ccc1F
0
CCc1nc(C(C)(C)C)sc1C(=O)Nc1cccc(C(=O)NCC(C)C)c1
25
C#CCOC(=O)c1cccc(NC(=O)c2cc(C(C)(C)C)nn2C)n1
0

IN: I'd like to know its Pigweed plant response rating. The compound in question is "CCn1nc(C(C)(C)C)nc1C(=O)Nc1cccc(C(=O)N(C)C)c1"
OUT: 90

IN: I'd like to know its Pigweed plant response rating. The compound in question is "CCc1nn(C(C)(C)C)cc1C(=S)Nc1cc(C(=S)N(C)C)ccc1F"
OUT: 20

IN: I'd like to know its Pigweed plant response rating. The compound in question is "CCn1nc(C(C)(C)C)cc1C(=O)Nc1cccc(SC(F)(F)F)c1"
OUT: 50

IN: I'd like to know its Pigweed plant response rating. The compound in question is "CCn1nc(C(C)(C)C)cc1C(=O)Nc1cc(C(=O)N(C)C)c(F)cc1F"
OUT: 20

IN: I'd like to know its Pigweed plant response rating. The compound in question is "CC(C)NS(=O)(=O)c1cccc(NC(=O)c2cc(C(C)(C)C)nn2C)c1"
OUT: 30

IN: I'd like to know its Pigweed plant response rating. The compound in question is "CCNC(=O)c1cccc(NC(=O)c2sc(C(C)(C)C)nc2CC)n1"
OUT: 30

IN: I'd like to know its Pigweed plant response rating. The compound in question is "CC(=NO)c1cccc(NC(=O)c2cc(C(C)(C)C)nn2C(C)C)c1"
OUT: 50

IN: I'd like to know its Pigweed plant response rating. The compound in question is "CCn1nc(C(C)(C)C)cc1C(=O)Nc1nc(OC)cc(OC)n1"
OUT: 20

IN: I'd like to know its Pigweed plant response rating. The compound in question is "COC(=O)c1cccc(NC(=O)c2sc(C(C)(C)C)nc2C)c1"
OUT: 0

IN: I'd like to know its Pigweed plant response rating. The compound in question is "CCc1nn(C(C)(C)C)cc1C(=O)Nc1cc(C(=O)N(CC)CC)ccc1F"
OUT: 50

IN: I'd like to know its Pigweed plant response rating. The compound in question is "CCOC(=O)c1cccc(NC(=O)c2cc(C(C)(C)C)nn2CC)c1OC"
OUT: 0
